Tested on: A2780 ovarian cancer cells
Assay: MTT cytotoxicity test on A2780 ovarian cancer cells
Assay type: cell-based
Details: A2780 ovarian cancer cell line, 72 hours incubation
measured.attribute: pIC50
Give bare numbers, as −log10 of the molar value.

For this molecule ( N.N.[Cl][Pt][Cl] [cis-[Pt(NH3)2Cl2], cis-diamminedichloroplatinum(II)] ), measured pIC50 is 5.52
